Items are presented alongside their recorded TGI.
# Tested on: OVCAR-3 ovarian
# protocol_summary: NCI tumour cell line growth inhibition, 48 h

molecule	TGI
CCOC(=O)c1ccc(-n2cnc(-c3ccc([N+](=O)[O-])cc3)c2)cc1	> 100 µM
Cc1ncn(-c2ccccc2O)c1C	> 100 µM
C=C1C2CCC3C4(C)CCCC(C)(C(=O)O)C4CCC3(C2)C1OC(=O)/C(C)=C/C (configuration not stated)	41 µM
CC1SC(c2ccccc2Cl)N(NC(=O)C(O)c2ccccc2)C1=O (configuration not stated)	> 100 µM
CCC[CH2][Sn](=[O])[CH2]CCC	> 50 µM
COc1cnc2c(c1)C(=O)c1c-2n(CCCN2CCCC2)c(=O)c2cc([N+](=O)[O-])ccc12	0.901 µM
Cc1ccc(NCC2(/N=C/c3ccccc3)OC(CO)C(O)C2O)cc1 (configuration not stated)	> 100 µM
c1ccc2c3c(ccc2c1)-c1[nH]ncc1CCO3	> 82.1 µM
CCN1CCN(CCNc2nccc(-c3c(-c4ccc(F)c(O)c4)nc4occn34)n2)S1(=O)=O	> 100 µM
CCOC(=O)C12CCC(=O)N1N(C)c1ncccc1N2 (configuration not stated)	> 100 µM
O=c1[nH]c(Nc2ccc(Br)c(C(F)(F)F)c2)nc2nc[nH]c12	87 µM
COc1c2c(c3c(c1OC)c(=O)c1ccccc1n3C)OCO2	> 100 µM

* * *

Documented TGI across a set of compounds
# Test system: SF-295 CNS
# protocol_summary: NCI tumour cell line growth inhibition, 48 h

compound	TGI
CSc1cc([C@@H]2C[C@H]2c2ccc(Cl)cc2)on1	69.2 µM
Nc1nc(=O)n(C2CCC(CO)O2)cc1F (configuration not stated)	> 100 µM
CN1C(=O)CCC(N2C(=O)c3cccc(NCCOCCOCCNC(=O)c4cc5c(o4)C(=O)c4ccccc4C5=O)c3C2=O)C1=O (configuration not stated)	3.08 µM
CC(Oc1ccc2c(-c3ccc(Cl)cc3)cc(=O)oc2c1)C(=O)O (configuration not stated)	> 100 µM
O=C(C[n+]1ccccc1)N/N=C(/CCC(=O)N(Cc1ccccc1)Cc1ccccc1)CC(=O)c1ccccc1	> 100 µM
c1ccc2c3c(ccc2c1)-c1[nH]ncc1CCO3	> 86.1 µM
O=C(CC1(O)C(=O)Nc2c(Cl)cc(Cl)cc21)c1ccccc1 (configuration not stated)	> 100 µM

* * *

Each record here notes measured TGI.
# System: HS 578T breast
# protocol_summary: NCI tumour cell line growth inhibition, 48 h
measured_property: TGI

molecule	value
Cc1ccc(OCC2CO2)c(Br)c1 (stereo not given)	> 100 µM
O=C(O)c1cccc(S(=O)(=O)NCCO)c1	> 100 µM
O=C1Nc2c(Cl)cc(Cl)cc2/C1=N/N=C/c1ccco1	> 100 µM
CN1CCC2(CC1)SSC1(CCN(C)CC1)S2	> 100 µM
[N-]=[N+]=NCN1C(=O)C2C3C=CC(C2C1=O)C1C2C(=O)N(CN=[N+]=[N-])C(=O)C2C31 (stereo not given)	> 100 µM
COc1ccc(C(=O)/C=C/c2ccc(OCCCCCCCCCCOc3ccc(/C=C/C(=O)c4ccc(OC)cc4)cc3)cc2)cc1	> 100 µM
COc1cnc2c(c1)C(=O)c1c-2n(CCCN2CCCC2)c(=O)c2cc([N+](=O)[O-])ccc12	23.2 µM
COc1nc(N)nc2c1ncn2C1CC(O)C(CO)O1 (stereo not given)	> 100 µM
Oc1ccccc1-c1nn(CNc2ccc(Cl)cc2)c(=S)o1	> 100 µM
OC1CC2CCC(C1)N2CCCN1c2ccccc2Sc2ccc(Cl)cc21 (stereo not given)	4.59 µM
CCOC(=O)c1[nH]c2cc(Cl)ccc2c1[C@@H](C(=O)NC(C)(C)C)N(CC)C(=O)CCCCC#Cc1cccc2c1CN(C1CCC(=O)NC1=O)C2=O (stereo not given in full)	6.66 µM
Cc1nc(-c2ccccc2)cn2c1nc1ccccc12	> 87.5 µM
Cc1cn(C2CC(n3cc(Cn4ccc(=O)[nH]c4=O)nn3)C(CO)O2)c(=O)[nH]c1=O (stereo not given)	> 100 µM
CCSC[C@@H]1C[C@](O)(c2ccc(Cl)cc2)[C@@H](c2ccc(Cl)cc2)O1	39.6 µM
COc1ccc(NC(=O)Oc2ccc3c(C)cc(=O)oc3c2)c(OC)c1 (tested in a mixture with another compound)	> 100 µM
Cc1cc(OCc2nnc3n2S(=O)(=O)c2ccccc2N3C)ccc1Cl	> 100 µM
CCOP(=O)(OCC)Oc1c(OC)c2[nH]c(C(=O)OC)cc2c2c(C(=O)O)c[nH]c12	> 100 µM
CCOP(=O)(CC(=O)C1CC1)OCC	> 100 µM
CCOC(=O)CNC(=O)C(CCC(=O)N(C)O)NC(=O)CCC(N)C(=O)O (stereo not given)	> 100 µM
Cc1cc2c(F)c(Oc3ncnc(Nc4ccc(N5C[C@@H](C)N[C@@H](C)C5)cc4)c3C#N)cc(F)c2[nH]1	5.4 µM
Cc1ccc2c(C(C[N+](=O)[O-])c3ccccc3)c(-c3ccccc3)[nH]c2c1 (stereo not given)	94.3 µM
COc1cc(-n2ccnc2-c2ccc3ccccc3c2)cc(OC)c1OC	10.5 µM
COc1cc(C2C=C(c3ccccc3)Oc3cc4c(cc32)OCO4)cc(OC)c1OC (stereo not given)	> 100 µM
COC(=O)Nc1nc2ccc(NS(=O)(=O)c3cccs3)cc2[nH]1	36.4 µM
O=C(O)/C=C/c1ccc(Oc2ccccc2C(=O)O)o1	> 10 µM
